assay: HPLC-based chemical stability at different pH; details: acidic conditions, pH 1, 37 °C

SMILES REPR	chemical stability (in words)
CC(C)S(=O)(=O)NC(=O)Nc1c2c(cc3c1CCC3)CCC2	unstable
O=C(Nc1c2c(cc3c1CCC3)CCC2)NS(=O)(=O)c1ccco1	unstable
